Item-by-item account of GI50
System: SF-268 CNS
Test: NCI tumour cell line growth inhibition, 48 h
reported-endpoint: GI50

compound: Cc1nc2sc(C(=O)Nc3cccc(Br)c3)c(N)c2cc1C(O)c1ccccc1 (stereo unspecified)
reported-endpoint: GI50
result: 1810 nM
//
compound: COc1cc2c3c(n(CCCN4CCCC(O)C4)c(=O)c2cc1OC)-c1cc2c(cc1C3=O)OCO2 (stereo unspecified)
reported-endpoint: GI50
result: 593 nM
//
compound: Cc1c(-c2nnc(-c3cc(Cl)c(Cl)cc3Cl)o2)nnn1-c1ccnc2c(C(F)(F)F)cccc12
reported-endpoint: GI50
result: 25000 nM
//
compound: COc1cc(/C=C2\C[C@H]3[C@@H]4CC=C5C[C@@H](OC(C)=O)CC[C@]5(C)[C@H]4CC[C@]3(C)[C@H]2OC(C)=O)ccc1OCCN1CCCCC1
reported-endpoint: GI50
result: 35700 nM
//
compound: c1ccc2c3c(ccc2c1)-c1c(ccc2c(NCCCCN4CCCCC4)cccc12)C3
reported-endpoint: GI50
result: 1070 nM
//
compound: COc1cnc2c(c1)C(=O)c1c-2n(CCCNC(C)C)c(=O)c2cc([N+](=O)[O-])ccc12
reported-endpoint: GI50
result: 48.8 nM
//
compound: C=CCSSc1ncnc2c1ncn2C1OC(CO)C(O)C1O (stereo unspecified)
reported-endpoint: GI50
result: 5050 nM
//
compound: Oc1c(CN2CCN(c3ccccc3F)CC2)cc(Br)c2cccnc12
reported-endpoint: GI50
result: 858 nM
//
compound: Nc1nc(-c2ccccc2)cc(-c2ccc(Cl)cc2)c1-c1nc2ccccc2o1
reported-endpoint: GI50
result: 10900 nM
//
compound: Clc1ccc2c(NCCNc3nc(N4CCCC4)nc4ccccc34)ccnc2c1
reported-endpoint: GI50
result: 1590 nM
//
compound: CC#CC(=O)N1CC[C@@H](n2c(=O)n(-c3ccc(Oc4ccccc4)cc3)c3c(N)ncnc32)C1
reported-endpoint: GI50
result: 30300 nM
